Value source: patent US20240084003A1

# experimental-target: T1, murine CD22 protein (ACROBiosystems, SI2-M52Ha) (murine, UniProt P35329 22-708)
# T1 construct: extracellular domain; also called murine CD22-ECD; murine CD22-ECD-His
# T1 sequence (looked up): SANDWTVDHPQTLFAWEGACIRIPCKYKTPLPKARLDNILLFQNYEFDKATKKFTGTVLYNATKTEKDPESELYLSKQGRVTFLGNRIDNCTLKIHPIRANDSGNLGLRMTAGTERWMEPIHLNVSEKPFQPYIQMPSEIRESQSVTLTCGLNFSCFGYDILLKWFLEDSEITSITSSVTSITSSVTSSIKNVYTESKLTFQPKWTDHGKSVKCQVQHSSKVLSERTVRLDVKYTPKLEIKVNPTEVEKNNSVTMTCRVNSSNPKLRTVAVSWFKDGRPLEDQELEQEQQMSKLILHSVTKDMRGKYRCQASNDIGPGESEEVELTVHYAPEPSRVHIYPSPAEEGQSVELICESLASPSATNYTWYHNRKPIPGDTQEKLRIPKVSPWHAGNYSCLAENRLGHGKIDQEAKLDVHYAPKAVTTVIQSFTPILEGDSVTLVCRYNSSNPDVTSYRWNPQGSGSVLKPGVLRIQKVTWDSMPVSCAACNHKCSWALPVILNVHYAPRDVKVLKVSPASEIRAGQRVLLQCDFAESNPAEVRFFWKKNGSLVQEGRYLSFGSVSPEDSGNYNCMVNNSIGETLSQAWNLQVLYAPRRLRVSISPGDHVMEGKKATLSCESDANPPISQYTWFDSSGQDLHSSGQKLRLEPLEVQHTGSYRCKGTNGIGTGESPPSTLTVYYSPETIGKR
# method: ELISA, coated murine CD22, 10 nM Ab
Measured OD450 of individual entries
Respond with the bare value in OD450.

Example entries and their recorded answers appear below.
{"columns": ["binder", "assay-value"],
 "data": [
  ["F1.192.1 human-murine chimeric antibody (antibody, human IgG1, kappa, V domains shown, Chimeric, human IgG1 / kappa) VH: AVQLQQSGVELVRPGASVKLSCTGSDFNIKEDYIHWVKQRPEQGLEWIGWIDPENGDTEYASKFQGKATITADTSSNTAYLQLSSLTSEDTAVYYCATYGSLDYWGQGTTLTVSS VL: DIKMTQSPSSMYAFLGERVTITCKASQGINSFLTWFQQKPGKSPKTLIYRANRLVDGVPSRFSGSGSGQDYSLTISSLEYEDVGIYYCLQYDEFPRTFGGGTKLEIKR", 0.08],
  ["F2.127.11 human-murine chimeric antibody (antibody, human IgG1, lambda, V domains shown, Chimeric, human IgG1 / lambda; VL tied by name) VH: QVTLKESGPGILQPSQTLSLTCSFSGFSLSTFGMGVGWIRQPSGKGLEWLAHIWWDDDKHYNPALKSRLTISKDTSRNQVFLKIANVDTADGATYFCARDNWVSSLDYWGQGTSVIVSS VL: QPVITQSSSASFSLGASAELTCTLSSQHSTYTIEWYQQQPLKPPKYVMGLKKDGSHSTGDGIPDRFSGSSSGADRYLSISNIQPEDEAIYICGVSDTIKEQFVYVFGGGTKVTVLG", 0.07],
  ["F1.250.16 human-murine chimeric antibody (antibody, human IgG1, kappa, V domains shown, Chimeric, human IgG1 / kappa; VL tied by name) VH: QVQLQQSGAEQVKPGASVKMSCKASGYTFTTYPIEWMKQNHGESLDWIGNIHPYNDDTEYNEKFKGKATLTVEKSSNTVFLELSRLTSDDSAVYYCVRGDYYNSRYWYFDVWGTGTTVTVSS VL: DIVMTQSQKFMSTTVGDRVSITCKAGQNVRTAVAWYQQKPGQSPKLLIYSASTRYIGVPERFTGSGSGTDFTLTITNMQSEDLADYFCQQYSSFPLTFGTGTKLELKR", 0.06],
  ["F1.172.13 human-murine chimeric antibody (antibody, human IgG1, kappa, V domains shown, Chimeric, human IgG1 / kappa) VH: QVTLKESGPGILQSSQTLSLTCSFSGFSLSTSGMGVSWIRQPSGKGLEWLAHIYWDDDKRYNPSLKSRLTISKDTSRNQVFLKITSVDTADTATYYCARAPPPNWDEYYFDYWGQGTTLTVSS VL: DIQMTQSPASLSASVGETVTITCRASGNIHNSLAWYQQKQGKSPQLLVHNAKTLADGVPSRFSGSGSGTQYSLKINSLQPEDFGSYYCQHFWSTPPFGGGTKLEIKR", 0.06]
]}

Moving on to another binder below.
Ask | Entry m971-hIgG1 (antibody, V domains shown, Positive control anti-human CD22 antibody; V regions from US 8,591,889 B on human IgG1 constant regions) VH: QVQLQQSGPGLVKPSQTLSLTCAISGDSVSSNSAAWNWIRQSPSRGLEWLGRTYYRSKWYNDYAVSVKSRITINPDTSKNQFSLQLNSVTPEDTAVYYCAREVTGDLEDAFDIWGQGTMVTVSS VL: DIQMTQSPSSLSASVGDRVTITCRASQTIWSYLNWYQQRPGKAPNLLIYAASSLQSGVPSRFSGRGSGTDFTLTISSLQAEDFATYYCQQSYSIPQTFGQGTKLEIKR : reported OD450 = ?
Reply | 0.08
